Molecular target: T1, full-length human Tau (Tau441; 2N4R), recombinant (human, UniProt P10636 1-758)
T1 construct: made in E. coli, His6-Smt3 tag removed; biotinylated through amines for Octet and phage work; also called r-Tau; recombinant Tau
T1 sequence (P10636 other isoform, or with tags, fused parts or gaps limits assumed): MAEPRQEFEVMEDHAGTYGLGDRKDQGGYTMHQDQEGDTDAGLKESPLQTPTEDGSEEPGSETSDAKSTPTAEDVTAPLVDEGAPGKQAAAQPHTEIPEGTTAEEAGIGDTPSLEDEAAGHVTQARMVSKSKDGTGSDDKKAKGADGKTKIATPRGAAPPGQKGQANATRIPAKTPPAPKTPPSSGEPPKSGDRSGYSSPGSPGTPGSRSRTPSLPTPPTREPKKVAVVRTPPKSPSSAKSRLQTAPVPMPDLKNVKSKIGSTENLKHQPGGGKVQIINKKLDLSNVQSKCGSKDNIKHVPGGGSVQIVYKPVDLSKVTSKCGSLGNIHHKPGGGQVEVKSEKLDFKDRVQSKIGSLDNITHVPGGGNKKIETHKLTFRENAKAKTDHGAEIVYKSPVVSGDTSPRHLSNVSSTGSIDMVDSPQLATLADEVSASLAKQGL
Assay: SPR Biacore
Endpoint label: Kd

Input: # get_value(readout='Kd', item= Clone with L3_7 (antibody, V domains shown, based on hu1C7.v2) VH: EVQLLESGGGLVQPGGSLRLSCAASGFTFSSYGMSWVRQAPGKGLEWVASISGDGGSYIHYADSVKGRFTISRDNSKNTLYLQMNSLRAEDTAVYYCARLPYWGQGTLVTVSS VL: DIVMTQSPDSLAVSLGERATINCKSSQSLLNSGNQKNYLTWYQQKPGQPPKLLIYWASTRESGVPDRFSGSGSGTDFTLTISSLQAEDVAVYYCQQYNAYPLTFGQGTKVEIKR )
Output: 1.19 nM

Next:
Input: Report Kd for Clone with H2_1 (antibody, V domains shown, based on hu1C7.v2) VH: EVQLLESGGGLVQPGGSLRLSCAASGFTFSSYGMSWVRQAPGKGLEWVASISGEGGSYIHYADSVKGRFTISRDNSKNTLYLQMNSLRAEDTAVYYCARLPYWGQGTLVTVSS VL: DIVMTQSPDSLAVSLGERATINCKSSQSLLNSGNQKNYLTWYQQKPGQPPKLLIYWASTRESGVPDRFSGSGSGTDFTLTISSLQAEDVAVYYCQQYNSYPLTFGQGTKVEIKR please.
Output: 8.28 nM

Cited source: patent US20200216522A1
